Observed IC50, system UniProt P42345.
Sequence (P42345 1360-2549 limits assumed): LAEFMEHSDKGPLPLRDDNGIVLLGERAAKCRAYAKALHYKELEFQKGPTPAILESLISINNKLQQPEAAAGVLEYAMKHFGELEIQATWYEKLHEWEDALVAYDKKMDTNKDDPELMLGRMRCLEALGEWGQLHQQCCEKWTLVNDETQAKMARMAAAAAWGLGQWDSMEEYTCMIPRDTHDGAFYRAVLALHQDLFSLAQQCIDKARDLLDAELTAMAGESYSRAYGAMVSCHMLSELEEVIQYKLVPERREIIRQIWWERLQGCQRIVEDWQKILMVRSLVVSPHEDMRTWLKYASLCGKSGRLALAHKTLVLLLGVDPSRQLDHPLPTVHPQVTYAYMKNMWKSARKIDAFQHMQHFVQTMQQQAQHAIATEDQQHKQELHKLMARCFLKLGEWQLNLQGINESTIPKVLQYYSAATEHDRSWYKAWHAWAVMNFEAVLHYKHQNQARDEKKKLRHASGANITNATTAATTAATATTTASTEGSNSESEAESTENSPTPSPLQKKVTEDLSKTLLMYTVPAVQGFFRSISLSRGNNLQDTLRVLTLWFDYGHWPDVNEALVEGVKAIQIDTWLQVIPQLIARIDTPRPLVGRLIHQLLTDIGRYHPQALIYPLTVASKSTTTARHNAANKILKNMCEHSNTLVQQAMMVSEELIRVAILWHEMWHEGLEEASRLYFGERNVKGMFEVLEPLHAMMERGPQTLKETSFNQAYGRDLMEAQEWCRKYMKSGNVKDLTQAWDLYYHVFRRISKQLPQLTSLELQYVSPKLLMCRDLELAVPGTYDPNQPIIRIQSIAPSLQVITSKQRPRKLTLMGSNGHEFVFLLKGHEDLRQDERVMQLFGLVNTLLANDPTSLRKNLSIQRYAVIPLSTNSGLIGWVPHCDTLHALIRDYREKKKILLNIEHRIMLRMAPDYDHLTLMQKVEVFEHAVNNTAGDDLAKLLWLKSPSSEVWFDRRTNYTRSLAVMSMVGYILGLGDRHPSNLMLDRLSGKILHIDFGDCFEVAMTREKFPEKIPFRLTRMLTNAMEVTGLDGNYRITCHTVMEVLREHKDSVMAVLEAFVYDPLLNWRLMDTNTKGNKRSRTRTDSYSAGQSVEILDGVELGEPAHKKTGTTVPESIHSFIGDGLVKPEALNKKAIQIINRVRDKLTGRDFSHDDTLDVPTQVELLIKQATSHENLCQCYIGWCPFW
MEASUREMENT_NAME: IC50 (nM)

> print(dat)
                                   molecule     test.system  measurement.name  recorded.result
1  CNc1ncc(-c2ccc3ncc4c(c3c2)n(-c2cn(C)nc2C)c(=O)n4C)cn1 [Example 80.1]  UniProt P42345              IC50               13

1. Cc1nn(C)c(C)c1-n1c(=O)n(C)c2cnc3ccc(-c4cnc(N)c(CO)c4)cc3c21 [Example 169.2]
2. CCNc1cc(-c2ccc3ncc4c(c3c2)n(-c2c(C)nn(C)c2C)c(=O)n4C)cnc1Cl [Example 153.1]
3. CCNc1cc(-c2ccc3ncc4c(c3c2)n(-c2c(C)nn(C)c2C)c(=O)n4C)cnc1F [Example 154.1]
4. COC(=O)c1ccc(-c2ccc3ncc4c(c3c2)n(-c2cn(C)nc2C)c(=O)n4C)cn1 [Example 100]
q: Let's sort these by IC50, smallest first. Go ahead? To answer, arrange all of the labels according to the requested order.
a: 4, 2, 1, 3

I. Cc1nn(C)cc1-n1c(=O)n(C)c2cnc3ccc(-c4cncc(N(C)S(C)(=O)=O)c4)cc3c21 [Example 121]
II. CCOc1cc(-c2ccc3ncc4c(c3c2)n(-c2cn(C)nc2C)c(=O)n4C)ccn1 [Example 91]
q: Two entries are listed, I and II . Which one carries the higher IC50? Give the chosen item's label as your response.
a: II

A. CC(=O)Nc1cc(-c2ccc3ncc4c(c3c2)n(-c2cn(C)nc2C)c(=O)n4C)cnc1Cl [Example 222]
B. CCOc1ccc(-c2ccc3ncc4c(c3c2)n(-c2cnn(C)c2C)c(=O)n4C)cn1 [Example 3.6]
C. COc1ncc(-c2ccc3ncc4c(c3c2)n(-c2cn(C)nc2C)c(=O)n4C)c(OC)n1 [Example 234.2]
q: Please list these molecules in decreasing order of IC50. Present the labels in the sequence the task asks for.
a: B, A, C
(B: 191 nM, A: 22 nM, C: 10 nM)

a. CCN(C)c1ccc(-c2ccc3ncc4c(c3c2)n(-c2cn(C(C)C)nc2C)c(=O)n4C)cn1 [Example 98.2]
b. Cc1nn(C)cc1-n1c(=O)n(C)c2cnc3ccc(-c4cnc(N(C)C)nc4)cc3c21 [Example 6.2]
c. CCN1C(=O)OCc2ncc(-c3ccc4ncc5c(c4c3)n(-c3cn(C)nc3C)c(=O)n5C)cc21 [Example 237]
q: Parameters: sort_field (IC50), sort_dir (desc). To answer, write out the labels according to the requested order.
a: c, b, a
(c: 70 nM, b: 43 nM, a: 30 nM)

* * *

- Tested on: PKB Ser473 phosphorylation in Rat1-myr-HA-p110 alpha cells
- ASSAY: Reverse protein array assay, PKB Ser473 phosphorylation in Rat1-myr-p110 alpha cells
- Type: cell-based
- ASSAY_CONTEXT: 0.5 h, pAkt Ser473, 30 minutes compound incubation, read-out: p-PKB IC50
MEASUREMENT_NAME: IC50 (nM)

Examples with their reported IC50 follow.
> print(dat)
                                   molecule  measurement.name  recorded.result
1  Cc1nn(C)cc1-n1c(=O)n(C)c2cnc3ccc(-c4cnc(N)c(F)c4)cc3c21 [Example 142.2]              IC50                6
2  COCCOc1ccc(-c2ccc3ncc4c(c3c2)n(-c2cn(C)nc2C)c(=O)n4C)cc1OC [Example 30.1]              IC50               30

A. Cc1nn(C)cc1-n1c(=O)n(C)c2cnc3ccc(-c4cncc(C5(O)CCCC5)c4)cc3c21 [Example 218]
B. CCOc1ccc(-c2ccc3ncc4c(c3c2)n(-c2cn(CC(=O)N(C)C)nc2C)c(=O)n4C)cn1 [Example 3.9]
C. Cc1nn(C)cc1-n1c(=O)n(C)c2cnc3ccc(-c4ccccn4)cc3c21 [Example 114]
D. CNc1cc(-c2ccc3ncc4c(c3c2)n(-c2cn(C)nc2C)c(=O)n4C)cnc1CO [Example 158.1]
E. Cc1nn(C)c(C)c1-n1c(=O)n(C)c2cnc3ccc(-c4cnc(Cl)c(N)c4)cc3c21 [Example 152.3]
q: # rank by IC50, ascending (min first) Sort the labels as requested; that list is your answer.
a: D, B, A, E, C
